Parameter: melting point (°C)

Below are worked cases with known answers.
{"columns": ["Molecule", "melting point (°C)"],
 "data": [
  ["Cc1ccc(NC=CC(=O)c2ccc3c(c2)CCCC3)cc1", 139],
  ["COc1ccc(Br)cc1C", 68],
  ["CC#Cc1cc(C)nc(Nc2ccccc2)n1", 133],
  ["c1ccc2sc(SN3CCOCC3)nc2c1", 85],
  ["Cc1cc(Cl)nn1C", 47.5],
  ["NNC(=O)c1cc(Cl)cc(Cl)c1", 206]
]}

a = CCC(=C(CC)c1ccc(OC)cc1)c1ccc(OC)cc1
b = Fc1c(F)c(F)c(I)c(F)c1F
Input line: For the pair a and b , which member has the lower melting point number? When you have decided, please share the label of that item.
Output line: b
(b: -29 °C, a: 124 °C)

I = CCOC(=O)Nc1ccc(NCc2ccc(F)cc2)nc1N
II = Cc1c(Cl)cccc1C(=O)O
Input line: Sorting ascending by melting point, which comes first: I or II ? # respond with the chosen item's label
Output line: I

a = CCOC(=O)c1ccc(NC(=O)C(C(F)(F)F)C(F)(F)F)cc1
b = O=[N+]([O-])c1c(Cl)ncnc1Cl
c = C=C1C[C@H]1C(O)C(=O)OC (some centres undefined)
d = CCCCCOC(=O)CCC(=O)OCCCCC
e = C=CC#CC=C
Input line: Sort ascending by melting point. Give me the labels in the order the question wants.
Output line: e, d, c, b, a

a = CCOc1ccc(C(=S)N2CCOCC2)cc1OC
b = CCCOC(=O)Cn1cc(I)c(=O)c(I)c1
Input line: Looking at a and b , which one comes out lower in melting point terms? // output: label of the selected item
Output line: a

a = CC#CCN1C(=O)c2ccccc2C1=O
b = c1ccc(C2Cc3ccccc3N2)cc1 (centres undefined)
c = COC(=O)C(C)N(C(=O)c1ccccc1)c1ccc(F)c(Cl)c1 (centres undefined)
Input line: Provide the items ranked by increasing melting point. Use the labels to give the requested order.
Output line: b, c, a

1 = COc1cc(N)ccc1Cl
2 = O=C1CCc2ccccc2N1
3 = COc1cc(N=C=S)cc(OC)c1
Input line: Order the 3 molecules from highest to lowest melting point. Could you list the labels in the order requested?
Output line: 2, 1, 3

a = O=C(CC(NC(=O)OCC1c2ccccc2-c2ccccc21)C(=O)O)NC(c1ccccc1)(c1ccccc1)c1ccccc1 (centres undefined)
b = CCOc1ccc([N+](=O)[O-])cc1N
c = CCCCCCCOC(=O)CCCCCC
Input line: // ascending sort on recorded melting point Provide the labels, sequenced as the question asks.
Output line: c, b, a
(c: -33 °C, b: 96.5 °C, a: 205 °C)

A = CN1c2ccccc2Sc2ccc(CC(=O)O)cc21
B = Cc1nn(C)c(Oc2ccccc2)c1C=NOCc1ccc(C(=O)OC(C)(C)C)cc1
C = CC(C)C(OC(=O)c1cccnc1)c1ccc(Cl)cc1 (centres undefined)
Input line: Sort by melting point, descending. Please list the labels in the order you were asked to rank them.
Output line: A, B, C

* * *

Parameter: melting point (°C)

Sample records with melting point:
{"columns": ["Molecule", "Parameter", "Unit spec", "Endpoint value"],
 "data": [
  ["CCCCCCCCCCCCCCCCCCCCCCCCCCCCCC(=O)O", "melting point", "°C", 93.6],
  ["CCSC(=O)Cl", "melting point", "°C", -60]
]}

A = CN(C)CCC=C1c2ccccc2Sc2ccc(Cl)cc21
B = COC(=O)C1CC(=O)N(C)C1 (configuration not stated)
Input line: Hey, which is lower on measured melting point, A or B ? Output the label that corresponds to your choice.
Output line: B

Cited source: a melting point compilation (Tetko et al.)
